# credit: patent US5475010A

- Test system: Proteus vulgaris X19H ATCC 881
- Assay Summary: MIC by broth microdilution, Proteus vulgaris
- Assay type: cell-based
- Assay Context: ATCC881
Counter-ions that a name gives are not always drawn.
Measured MIC, listed per entry for reference.

- Molecule: "CCNC1=CC(=O)c2c(O)c3c(c(O)c2C1=O)OC1(C3)CC(O)c2cc3cc(C(=O)OC)oc(=O)c3c(O)c2O1 (stereo not drawn) [Example 10, 7'-ethylamino purpuromycin]"
  MIC: "> 128 µg/mL"
- Molecule: "CNC1=CC(=O)c2c(O)c3c(c(O)c2C1=O)OC1(C3)CC(O)c2cc3cc(C(=O)OC)oc(=O)c3c(O)c2O1 (stereo not drawn) [Example 14, 7'-methylamino purpuromycin]"
  MIC: "> 128 µg/mL"
- Molecule: "CNC1=CC(=O)c2c(O)c3c(c(O)c2C1=O)OC1(CCc2cc4cc(C(=O)OC)oc(=O)c4c(O)c2O1)C3 (stereo not drawn) [Example 32, 7'-methylamino γ-rubromycin]"
  MIC: "> 128 µg/mL"
- Molecule: "COC(=O)c1cc2cc3c(c(O)c2c(=O)o1)OC1(Cc2c(O)c4c(c(O)c2O1)C(=O)C(NCCNC(=O)OC(C)(C)C)=CC4=O)CC3O (stereo not drawn) [Example 18]"
  MIC: "> 128 µg/mL"
- Molecule: "COC(=O)c1cc2cc3c(c(O)c2c(=O)o1)OC1(Cc2c(O)c4c(c(O)c2O1)C(=O)C(N)=CC4=O)CC3O (stereo not drawn) [Example 25, 7'-Aminopurpuromycin]"
  MIC: "> 128 µg/mL"
- Molecule: "COC(=O)c1cc2cc3c(c(O)c2c(=O)o1)OC1(Cc2c(O)c4c(c(O)c2O1)C(=O)C(NCc1ccccc1)=CC4=O)CC3O (stereo not drawn) [Example 8]"
  MIC: "> 128 µg/mL"
- Molecule: "COC(=O)c1cc2cc3c(c(O)c2c(=O)o1)OC1(Cc2c(O)c4c(c(O)c2O1)C(=O)C(NCC#N)=CC4=O)CC3O (stereo not drawn) [Example 16, 7'-(cyanomethylen)amino purpuromycin]"
  MIC: "> 128 µg/mL"
- Molecule: "COC(=O)c1cc2cc3c(c(O)c2c(=O)o1)OC1(CC3)Cc2c(O)c3c(c(O)c2O1)C(=O)C(N)=CC3=O (stereo not drawn) [Example 30, 7'-Amino-γ-rubromycin]"
  MIC: "> 128 µg/mL"
- Molecule: "COC(=O)c1cc2cc3c(c(O)c2c(=O)o1)OC1(Cc2c(O)c4c(c(O)c2O1)C(=O)C(NCC(F)(F)F)=CC4=O)CC3O (stereo not drawn) [Example 23]"
  MIC: "> 128 µg/mL"
- Molecule: "COC(=O)c1cc2cc3c(c(O)c2c(=O)o1)OC1(Cc2c(O)c4c(c(O)c2O1)C(=O)C(NCCN(C)C)=CC4=O)CC3O (stereo not drawn) [Example 6, hydrochloride]"
  MIC: "128 µg/mL"
- Molecule: "COC(=O)c1cc2cc3c(c(O)c2c(=O)o1)OC1(Cc2c(O)c4c(c(O)c2O1)C(=O)C(NCCO)=CC4=O)CC3O (stereo not drawn) [Example 21, 7'-(2-hydroxyethylen)-amino purpuromycin]"
  MIC: "≥ 128 µg/mL"
- Molecule: "CCCNC1=CC(=O)c2c(O)c3c(c(O)c2C1=O)OC1(C3)CC(O)c2cc3cc(C(=O)OC)oc(=O)c3c(O)c2O1 (stereo not drawn) [Example 12, 7'-propylamino purpuromycin]"
  MIC: "128 µg/mL"
